# TEST_TARGET: human somatostatin receptor subtype 5 (Homo sapiens)
# Construct: expressed in transfected cells
# Sequence (P35346 whole entry): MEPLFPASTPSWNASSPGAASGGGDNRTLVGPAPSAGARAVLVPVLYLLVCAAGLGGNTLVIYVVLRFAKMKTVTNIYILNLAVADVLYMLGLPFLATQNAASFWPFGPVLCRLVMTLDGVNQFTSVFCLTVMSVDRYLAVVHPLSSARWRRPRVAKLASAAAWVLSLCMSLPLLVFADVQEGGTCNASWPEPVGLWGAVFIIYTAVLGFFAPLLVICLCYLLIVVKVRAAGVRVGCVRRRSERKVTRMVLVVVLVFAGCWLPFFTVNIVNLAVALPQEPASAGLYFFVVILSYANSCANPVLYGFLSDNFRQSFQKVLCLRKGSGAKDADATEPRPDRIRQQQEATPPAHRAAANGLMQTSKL
# PROTOCOL_SUMMARY: cAMP assay for SST5R (inhibition of cAMP in CHO-K1 cells)
# Format: cell-based
# CONDITION_INFO: Table B; class symbols; SST5 receptor over SST2 receptor
MEASURED_ENDPOINT: Fold selectivity for SST5 vs SST2

COc1ncc(C(=O)N[C@@H](C)C2CC2)c(N2CC[C@](C)(N)C2)c1-c1cc(F)cc(C#N)c1	+++ (+++=>500)
CCOc1cc(-c2c(C(F)(F)F)ncc(C(=O)N[C@@H](C)C3CC3)c2N2CC[C@](C)(N)C2)ccn1	+++ (+++=>500)
COc1cc(-c2c(C#N)ncc(C(=O)NC3CCCC3)c2N2CC[C@](C)(N)C2)ccn1	+++ (+++=>500)
N#Cc1ncc(C(=O)NC2CCCCCC2)c(N2CC[C@H](N)C2)c1-c1cc(F)cc(F)c1	+++ (+++=>500)
